Data origin, for the record: patent US5463118A

assay.procedure: degree of sweetness of L-aspartyl fenchyl amino alcohols by absolute configuration at (a) and (b)

| molecule | degree of sweetness, in words |
| --- | --- |
| C[C@H](NC(=O)[C@@H](N)CC(=O)O)[C@@H](O)CC1C2(C)CCC(C2)C1(C)C (stereo partly drawn) [(S,S)] | scarcely any sweetness |
| C[C@H](NC(=O)[C@@H](N)CC(=O)O)[C@H](O)CC1C2(C)CCC(C2)C1(C)C (stereo partly drawn) [(S,R)] | scarcely any sweetness |
| C[C@@H](NC(=O)[C@@H](N)CC(=O)O)[C@@H](O)CC1C2(C)CCC(C2)C1(C)C (stereo partly drawn) [(R,S)] | scarcely any sweetness |
